# study_system: S-adenosylmethionine decarboxylase proenzyme (Homo sapiens)
# Sequence (P17707 1-67 limits assumed): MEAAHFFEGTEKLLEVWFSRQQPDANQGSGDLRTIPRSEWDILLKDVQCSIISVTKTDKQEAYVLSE
# Sequence (P17707 68-334 limits assumed): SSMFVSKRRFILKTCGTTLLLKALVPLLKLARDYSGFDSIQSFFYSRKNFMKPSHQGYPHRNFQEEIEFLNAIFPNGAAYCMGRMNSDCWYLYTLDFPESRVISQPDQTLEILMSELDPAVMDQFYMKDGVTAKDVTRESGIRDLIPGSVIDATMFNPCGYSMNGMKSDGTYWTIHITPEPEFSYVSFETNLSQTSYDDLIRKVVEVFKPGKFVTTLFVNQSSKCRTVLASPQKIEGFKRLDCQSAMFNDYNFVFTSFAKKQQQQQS
# protocol_description: Inhibition of recombinant human N-terminal His6-tagged AdoMetDC expressed in Escherichia coli BL21/DE3 cells at pH 7.2 by RapidFire-MS-based enzyme activity assay
pIC50: −log10 of the molar value.
result_type: pIC50

// solved cases for pIC50 follow
| mol | pIC50 |
| --- | --- |
| Cc1cc(Nc2cccc(Cl)c2Cl)nc(N)n1 | < 3.74 |
| Cc1cc(Nc2ccc(Br)cc2F)nc(N)n1 | < 3.74 |
| Nc1nc(Nc2cc(Cl)cc(Cl)c2)cc(N2CCOCC2)n1 | < 3.74 |

Give one value of pIC50 per listed compound.
1. Cc1cc(N)cc(Nc2cc(Cl)cc(Cl)c2)n1
2. Cc1cc(Nc2ccc(C(C)C)cc2)nc(N)n1
3. Cc1cc(Nc2cc(Cl)cc(Cl)c2O)nc(N)n1
4. Cc1cc(Nc2cc(Cl)c(Cl)c(Cl)c2)nc(N)n1

RESULT:
1: < 3.74; 2: < 3.74; 3: < 3.74; 4: < 4.20
